biological target: Estrogen receptor (Mus musculus) (UniProt O08537+P19785); assay: Uterotrophic effect in mice at 10 ug dose; assay type: functional, tissue-based; set-up: unit not given here; settings: Uterus
Sequence (O08537 whole entry, looked up): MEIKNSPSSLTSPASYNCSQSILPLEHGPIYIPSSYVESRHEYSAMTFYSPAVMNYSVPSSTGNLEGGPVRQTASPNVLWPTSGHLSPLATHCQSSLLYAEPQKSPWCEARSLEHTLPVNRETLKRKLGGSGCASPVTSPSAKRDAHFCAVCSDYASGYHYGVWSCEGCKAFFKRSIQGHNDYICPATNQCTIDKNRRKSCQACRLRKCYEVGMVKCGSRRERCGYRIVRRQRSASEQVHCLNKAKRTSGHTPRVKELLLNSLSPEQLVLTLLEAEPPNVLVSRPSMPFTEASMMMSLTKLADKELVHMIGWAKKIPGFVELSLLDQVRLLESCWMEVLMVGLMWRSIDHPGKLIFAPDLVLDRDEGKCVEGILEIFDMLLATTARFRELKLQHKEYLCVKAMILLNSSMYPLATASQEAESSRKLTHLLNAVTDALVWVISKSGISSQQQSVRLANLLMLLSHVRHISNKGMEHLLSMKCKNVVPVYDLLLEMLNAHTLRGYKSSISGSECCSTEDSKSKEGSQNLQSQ
Sequence (P19785 whole entry, looked up): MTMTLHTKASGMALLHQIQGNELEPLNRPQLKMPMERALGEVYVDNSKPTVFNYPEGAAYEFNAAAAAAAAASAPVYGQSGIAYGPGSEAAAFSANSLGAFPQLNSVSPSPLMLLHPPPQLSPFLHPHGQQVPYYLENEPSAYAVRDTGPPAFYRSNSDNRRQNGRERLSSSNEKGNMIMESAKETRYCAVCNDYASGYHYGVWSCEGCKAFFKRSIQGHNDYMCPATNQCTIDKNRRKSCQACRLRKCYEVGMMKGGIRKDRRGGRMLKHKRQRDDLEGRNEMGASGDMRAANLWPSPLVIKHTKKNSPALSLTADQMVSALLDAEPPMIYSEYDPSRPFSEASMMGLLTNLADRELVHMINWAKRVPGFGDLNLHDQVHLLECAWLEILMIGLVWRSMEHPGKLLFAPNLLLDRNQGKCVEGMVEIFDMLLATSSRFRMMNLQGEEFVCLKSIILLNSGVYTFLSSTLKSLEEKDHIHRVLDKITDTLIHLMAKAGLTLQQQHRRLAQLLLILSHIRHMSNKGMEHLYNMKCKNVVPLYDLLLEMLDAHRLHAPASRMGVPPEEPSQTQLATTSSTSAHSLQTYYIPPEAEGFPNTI
Collected Effect values appear next to each entry.

input.smiles	data.value
Oc1cccc([C@H]([C@H](c2cccc(O)c2)C(F)(F)F)C(F)(F)F)c1	19.8

Effect for `C[C@H](c1cccc(O)c1)[C@@H](C)c1cccc(O)c1` is 12.4

Effect for `Oc1cccc(/C(=C(/c2cccc(O)c2)C(F)(F)F)C(F)(F)F)c1` is 29

Effect for `Oc1ccc(/C(=C(/c2ccc(O)cc2)C(F)(F)F)C(F)(F)F)cc1` is 38.2

Effect for `Oc1ccc([C@H]([C@H](c2ccc(O)cc2)C(F)(F)F)C(F)(F)F)cc1` is 35.4

Effect for `C[C@H](c1ccc(O)cc1)[C@@H](C)c1ccc(O)cc1` is 28

Effect for `C/C(=C(/C)c1ccc(O)cc1)c1ccc(O)cc1` is 25.4

====

molecular target: Estrogen receptor (Mus musculus) (UniProt O08537+P19785); assay: Uterotrophic effect in mice at 5 ug dose; type: functional, tissue-based; conditions: Uterus
reported.endpoint: Effect
Answer as a number with no unit attached.

# count of solved cases: 4
input.smiles	system.name	Effect
Oc1cccc(/C(=C(/c2cccc(O)c2)C(F)(F)F)C(F)(F)F)c1	Estrogen receptor (Mus musculus) (UniProt O08537+P19785)	43
C/C(=C(/C)c1ccc(O)cc1)c1ccc(O)cc1	Estrogen receptor (Mus musculus) (UniProt O08537+P19785)	39.2
C[C@H](c1ccc(O)cc1)[C@@H](C)c1ccc(O)cc1	Estrogen receptor (Mus musculus) (UniProt O08537+P19785)	33.6
C[C@H](c1cccc(O)c1)[C@@H](C)c1cccc(O)c1	Estrogen receptor (Mus musculus) (UniProt O08537+P19785)	36.5

Effect for `C/C(=C(/C)c1cccc(O)c1)c1cccc(O)c1` is 37.2

====

target: Estrogen receptor (Mus musculus) (UniProt O08537+P19785); assay: Uterotrophic effect in mice at 100 ug dose; format: functional, tissue-based; design: unit not given here; details: Uterus
Collected Effect values appear next to each entry.
Answer as a number with no unit attached.

input.smiles	reported.endpoint	data.value
Oc1cccc(/C(=C(/c2cccc(O)c2)C(F)(F)F)C(F)(F)F)c1	Effect	45.5
Oc1cccc([C@H]([C@H](c2cccc(O)c2)C(F)(F)F)C(F)(F)F)c1	Effect	34.8

The record that follows has no Effect shown yet.
Effect for `C/C(=C(/C)c1cccc(O)c1)c1cccc(O)c1` is 13.8
